Parameter: MIC50. Scope: all listed entries.
system: Staphylococcus aureus strains (MRSA, hVISA, VISA, VRSA, quinolone-resistant MRSA); assay: MIC by agar dilution against Staphylococcal strains (MRSA, hVISA, VISA, VRSA, quinolone-resistant MRSA); format: cell-based; settings: Staphylococcus aureus, hVISA(2) + VISA (24) + VRSA (5)
MEASUREMENT LABEL: MIC50

1) CN(C)c1cc(NC(=O)CNC(C)(C)C)c(O)c2c1C[C@H]1C[C@H]3[C@H](N(C)C)C(O)=C(C(N)=O)C(=O)[C@@]3(O)C(O)=C1C2=O; 0.25 µg/mL
2) CCCCCCCCCC(=O)N[C@@H](Cc1c[nH]c2ccccc12)C(=O)N[C@H](CC(N)=O)C(=O)N[C@@H](CC(=O)O)C(=O)N[C@@H]1C(=O)NCC(=O)N[C@@H](CCCN)C(=O)N[C@@H](CC(=O)O)C(=O)N[C@H](C)C(=O)N[C@@H](CC(=O)O)C(=O)NCC(=O)N[C@H](CO)C(=O)N[C@@H]([C@H](C)CC(=O)O)C(=O)N[C@@H](CC(=O)c2ccccc2N)C(=O)O[C@@H]1C; 1 µg/mL
